conditions: in ethyl acetate, 273.15 K
outcome measure: solubility (mole fraction)
Give bare numbers.

Prompt line: If you can, please state the reported solubility (mole fraction) value of `COc1cc(Cl)nc(N)n1` .
Response line: 0.00547

====

details: in 1,4-dioxane, 313.15 K
outcome measure: solubility (mole fraction)
One number for each entry.

Prompt line: Would you kindly share the measured solubility (mole fraction) for `COc1cc(Cl)nc(N)n1` ?
Response line: 0.0569

====

settings: in DMF, 318.15 K
outcome measure: solubility (mole fraction)
One number for each entry.

Prompt line: Requested read-out: solubility (mole fraction). Entry: `COc1cc(Cl)nc(N)n1`
Response line: 0.11

These measurements were taken from BigSolDB 2.1.
